B1: TMEM40 (parent)
chain: YGETDFHKQDGKAGLFSQEQYERN

Variants of: B1
Assay comment: protein stability index of a GFP-peptide fusion (GPS, HEK-293T) (PSI 1-6); higher = more stable;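 also: lentivirally expressed fusions sorted by FACS into six bins by GFP to DsRed ratio, PSI derived from sequencing read proportions per bin multiplied by bin number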
Experimental parameters: c terminus: a fixed tail appended
Listed below: protein stability index values for each entry.
API doc: respond with a numeric literal and nothing else, no unit.

Consider the reported protein stability index for these variants:
>>> observed("S17C")
4.07
>>> observed("A13E")
4.33
>>> observed("Y1M")
4.38
>>> observed("K8V")
4.34

Now consider the entry below.
Task item: Param item = `F16A` ; retrieve measured protein stability index.
Reply: 4.97
